# assayName: Volume of distribution in Sprague-Dawley rat at 2 mg/kg, iv
# Assay type: ADME, organism-based
# Set-up: dose 2 mg/kg, route intravenous
# measurementContext: in vivo, read-out: Vdss
parameterMeasured: Vd (L/kg)
One number for each entry, in L/kg.

Exercise: Give the measured Vd of `Cc1cc(COc2ccc(C(=O)NC3(CC(=O)NO)CCOCC3)cc2)c2ccccc2n1` .
Solution: 0.7

====

# assayName: AUC in Beagle dog at 0.5 mg/kg, iv
# Assay type: ADME, organism-based, Canis lupus familiaris
# Set-up: dose 0.5 mg/kg, route intravenous
# measurementContext: plasma
parameterMeasured: AUC (µM·h)
Answers are plain numbers, in µM·h.

Exercise: Could you tell me which AUC is on file for `Cc1cc(COc2ccc(C(=O)NC3(CC(=O)NO)CCNCC3)cc2)c2ccccc2n1` ?
Solution: 2.19
